Test system: L1210 leukemia ip in BDF1 mice, survival T/C
Assay: NCI In Vivo Anticancer Drug Screen. Data for tumor model L1210 Leukemia (intraperitoneal) in B6D2F1 (BDF1) mice
Conditions: endpoint: mean survival time; dose: 100.0 mg/kg/injection; schedule: Q01DX001 (ip); vehicle: saline; higher = longer survival
Inconclusive results and toxic doses are left out.
Catalogue of molecules with associated T/C

MOLECULE: COc1ccc(C(=S)N2CCN(c3ccccc3Cl)CC2)cc1
T/C: 101 % of control

MOLECULE: Cc1cc(=O)n2c(n1)Nc1ccccc1C2
T/C: 87 % of control

MOLECULE: NC(=S)c1[nH]cnc1N
T/C: 110 % of control

MOLECULE: COC1C(OC(=O)/C=C/C=C/C=C/C=C/C(=O)O)CCC2(CO2)C1C1(C)OC1CC=C(C)C (stereo unspecified)
T/C: 93 % of control

MOLECULE: COC1OCC(NC(C)=O)C(O)C1O (stereo unspecified)
T/C: 102 % of control

MOLECULE: CSc1cc(=O)n2c3ccccc3c3ccnc1c32
T/C: 120 % of control

MOLECULE: O=C1ON(c2ccccc2)C(c2ccccc2)N1c1ccc([N+](=O)[O-])cc1 (stereo unspecified)
T/C: 114 % of control

MOLECULE: O=C(O)CO
T/C: 97 % of control

MOLECULE: O=S(=O)(O)C(O)c1ccccc1O (stereo unspecified)
T/C: 100 % of control

MOLECULE: CC(C)(C)OC(=O)CC(O)c1ccccc1 (stereo unspecified)
T/C: 102 % of control

MOLECULE: COc1ccc(C=Nc2ccc(O)cc2)cc1
T/C: 102 % of control

MOLECULE: CC(=O)OCC1OC(Sc2nc3ncnc(N)c3[nH]2)C(OC(C)=O)C(OC(C)=O)C1OC(C)=O (stereo unspecified)
T/C: 104 % of control

MOLECULE: O=C(CI)c1ccc[nH]1
T/C: 100 % of control

MOLECULE: C[N+]1(Cc2ccccc2)CCC(=O)CC1
T/C: 100 % of control

MOLECULE: O=[N+]([O-])c1cc([N+](=O)[O-])c2ccc(Cl)nc2c1O
T/C: 98 % of control

MOLECULE: CO/N=C1/C=C(C)C(=O)C(C)=C1C
T/C: 97 % of control

MOLECULE: Cc1ccc(C(=O)Cc2ccc(C#N)cc2)cc1
T/C: 96 % of control

MOLECULE: Cc1cccc(N2CCN(CC(O)COc3cccc4ccccc34)CC2)c1 (stereo unspecified)
T/C: 95 % of control

MOLECULE: COc1ccc(C)cc1NC(C)=O
T/C: 98 % of control

MOLECULE: O=C1c2ccccc2C(=O)N1[N+](=O)[O-]
T/C: 107 % of control

MOLECULE: ClC(Cl)(Cl)C1OCCCO1
T/C: 97 % of control

MOLECULE: COc1c(N)cc2c(c1C)OCOC2
T/C: 97 % of control

MOLECULE: COc1nc2ccccc2n1C1OC(CO)C(O)C1O (stereo unspecified)
T/C: 97 % of control

MOLECULE: CCCCNc1nc(N)nc2c1nnn2C1OC(CO)C(O)C1O (stereo unspecified)
T/C: 107 % of control

MOLECULE: O=CNc1ccccc1Cc1ccccc1
T/C: 101 % of control

MOLECULE: c1nc(SCC2CO2)c2ncn(CC3CO3)c2n1 (stereo unspecified)
T/C: 107 % of control

MOLECULE: C=CC(=O)N1c2ccccc2N(C(=O)C=C)C(C)C1C (stereo unspecified)
T/C: 112 % of control

MOLECULE: CCCCc1[nH]ccc2c(C)c3nc4ccccc4c3cc12
T/C: 97 % of control

MOLECULE: CCOC(=S)Nc1ccc(S(=O)(=O)c2ccc(NC(=S)OCC)cc2)cc1
T/C: 96 % of control

MOLECULE: O=S(=O)(C(Br)Br)C(Br)c1ccccc1 (stereo unspecified)
T/C: 93 % of control

MOLECULE: NC1CCC(O)CC1 (stereo unspecified)
T/C: 110 % of control

MOLECULE: COc1cc(CNCc2cc(OC)c(OC)c(OC)c2)cc(OC)c1OC
T/C: 102 % of control

MOLECULE: C1CC2CC1C1OC21 (stereo unspecified)
T/C: 100 % of control

MOLECULE: O=c1cc(O)cc(Cl)[nH]1
T/C: 96 % of control

MOLECULE: O=C(O)C12C3(Cl)C4(Cl)C5(OCCO5)C5(Cl)C3(Cl)C1(Cl)C5(Cl)C42Cl (stereo unspecified)
T/C: 102 % of control

MOLECULE: O=C(Cc1ccccc1)C(Cl)c1ccccc1 (stereo unspecified)
T/C: 94 % of control

MOLECULE: Cc1cc(Cl)ccc1OCCCC(=O)O
T/C: 98 % of control

MOLECULE: O=C(CCCC(=O)N/N=C/c1ccc2c(c1)OCO2)N/N=C\c1ccc2c(c1)OCO2
T/C: 103 % of control

MOLECULE: COCCOC(=O)c1ccc(C(N)=NC2CCCCC2)cc1
T/C: 96 % of control

MOLECULE: CCOc1ccc(NC(=O)OCCN2CCN(CCc3ccccc3)C(C)C2)cc1 (stereo unspecified)
T/C: 98 % of control

MOLECULE: CC(=O)[O][Ge]([CH2]CC(C)C)([CH2]CC(C)C)[CH2]CC(C)C
T/C: 102 % of control

MOLECULE: O=C(CCCC(=O)N/N=C/C=C/c1ccccc1)N/N=C/C=C\c1ccccc1
T/C: 110 % of control

MOLECULE: Cc1ccccc1CCC(=O)OCC(=O)c1ccc(-c2ccccc2)cc1
T/C: 96 % of control

MOLECULE: COC(=O)C1(C)COP(=O)(Nc2ccc(Br)cc2)OC1 (stereo unspecified)
T/C: 96 % of control

MOLECULE: CC1CN1P(=O)(N1CC=CCC1)N1CC1C (stereo unspecified)
T/C: 120 % of control

MOLECULE: CC(=O)NCCCOc1ccc(N)cc1
T/C: 96 % of control

MOLECULE: COC(=O)c1ccc(C)cn1
T/C: 100 % of control

MOLECULE: N[C@@H](Cc1ccc(O)c(O)c1)C(=O)O
T/C: 94 % of control

MOLECULE: CC1=C[P+](C)(Cc2ccccc2)CC1 (stereo unspecified)
T/C: 100 % of control

MOLECULE: CCCCN1CC1(C)C (stereo unspecified)
T/C: 98 % of control

MOLECULE: COc1c(Br)c(-c2ccccc2)nc2ccccc12
T/C: 100 % of control

MOLECULE: C=CCSc1cccc(Cl)c1
T/C: 101 % of control

MOLECULE: Cc1ccccc1NC(=O)C1CCCC1=O (stereo unspecified)
T/C: 103 % of control

MOLECULE: CC(=O)Oc1cc(C)[nH]c(=O)c1
T/C: 101 % of control

MOLECULE: CC(C)CCC1(C)CC(=O)Nc2ccccc21 (stereo unspecified)
T/C: 97 % of control

MOLECULE: CC(C)(C#N)CCCCCC(C)(C)C#N
T/C: 96 % of control
